All values here come from paper PMC6162693.

Test system: Aspergillus niger
Assay: Broth microdilution antimicrobial assay, A. niger
Assay type: cell-based
Conditions: read-out: MFC A. niger
Result type: MFC

Problem: Would you mind telling me what MFC value was observed for Oc1ccc(N=Cc2ccccc2)cc1 [Compound 6, 4-(benzylideneamino)phenol] ?
Solution: > 5.07 µM

Problem: Also, Oc1cc(N=Cc2ccccc2O)n[nH]1 [Compound 2] please.
Solution: > 4.31 µM

Problem: Also, Oc1cc(N=Cc2ccccc2)n[nH]1 [Compound 3] please.
Solution: > 5.35 µM

Problem: Also, O=[N+]([O-])c1ccc(C=Nc2cc(O)[nH]n2)cc1 [Compound 1] please.
Solution: > 4.31 µM

Problem: Also, Oc1ccc(N=Cc2ccccc2O)cc1 [Compound 5, 4-(2-hydroxybenzylideneamino)phenol] please.
Solution: > 4.69 µM

Problem: Also, O=S(=O)(O)c1cc(O)c(N=Cc2ccccc2O)c2ccccc12 [Compound 8] please.
Solution: 1.46 µM

---

So I've got a bunch of molecules here, and I need their melting point values.
Please respond with the number in °C and leave the unit unwritten.

Problem: Would you mind telling me what melting point value was observed for O=[N+]([O-])c1ccc(C=Nc2ccc(O)cc2)cc1 [Compound 4] ?
Solution: 202

Problem: Also, Oc1ccc(N=Cc2ccccc2)cc1 [Compound 6, 4-(benzylideneamino)phenol] please.
Solution: 302

Problem: Also, O=[N+]([O-])c1ccc(C=Nc2cc(O)[nH]n2)cc1 [Compound 1] please.
Solution: 285

Problem: Also, Oc1cc(N=Cc2ccccc2O)n[nH]1 [Compound 2] please.
Solution: 370

Problem: Also, O=S(=O)(O)c1cc(O)c(N=Cc2ccccc2)c2ccccc12 [Compound 9] please.
Solution: 246

Problem: Also, O=S(=O)(O)c1cc(O)c(N=Cc2ccccc2O)c2ccccc12 [Compound 8] please.
Solution: 296

Problem: Also, O=[N+]([O-])c1ccc(C=Nc2c(O)cc(S(=O)(=O)O)c3ccccc23)cc1 [Compound 7] please.
Solution: 200

Problem: Also, Oc1cc(N=Cc2ccccc2)n[nH]1 [Compound 3] please.
Solution: 266

---

So I've got a bunch of compounds here, and I need their IC50 values.
Molecular target: α-glucosidase
Assay: α-Glucosidase inhibitory activity
Assay type: biochemical
Settings: Means ×10^2 ± SD from at least three experiments

Problem: Would you mind telling me what IC50 value was observed for Oc1cc(N=Cc2ccccc2)n[nH]1 ?
Solution: 560 µM

Problem: Also, O=[N+]([O-])c1ccc(C=Nc2cc(O)[nH]n2)cc1 please.
Solution: 540 µM

Problem: Also, O=[N+]([O-])c1ccc(C=Nc2ccc(O)cc2)cc1 please.
Solution: 1390 µM

Problem: Also, Oc1ccc(N=Cc2ccccc2)cc1 please.
Solution: 1420 µM

Problem: Also, O=[N+]([O-])c1ccc(C=Nc2c(O)cc(S(=O)(=O)O)c3ccccc23)cc1 please.
Solution: 961 µM

Problem: Also, O=S(=O)(O)c1cc(O)c(N=Cc2ccccc2O)c2ccccc12 please.
Solution: 500 µM

Problem: Also, Oc1ccc(N=Cc2ccccc2O)cc1 [Compound 5, 4-(2-hydroxybenzylideneamino)phenol] please.
Solution: 1380 µM

Problem: Also, O=S(=O)(O)c1cc(O)c(N=Cc2ccccc2)c2ccccc12 please.
Solution: 660 µM

Problem: Also, Oc1cc(N=Cc2ccccc2O)n[nH]1 please.
Solution: 120 µM
